Note to self: these compounds have IC50 reported for Ubiquitin carboxyl-terminal hydrolase 7 (Homo sapiens, UniProt Q93009) in various publications.

The examples below pair each entry with its known result.
Compound	Measured parameter	Recorded value
O=C(CCc1ccccc1)N1CCC(O)(Cn2cnc3cc(Cl)ccc3c2=O)C1 (stereo not shown)	IC50	> 10 µM
O=C(C1Cc2cc(Cl)cc(-c3ccnc4[nH]ccc34)c2O1)N1CCC(O)(c2cccc3ncccc23)CC1 (stereo not shown)	IC50	1 to 10 µM
N#Cc1cc2nccc(-c3cc(Cl)cc4c3O[C@@H](c3onc5c3CNCC5)C4)c2cc1F	IC50	< 1 µM
Clc1cc2c(c(-c3ccnc4[nH]ccc34)c1)OC(c1onc3c1CNCC3)C2 (stereo not shown)	IC50	< 1 µM
NC(=O)c1cc2nccc(-c3cc(Cl)cc4c3OC(C(=O)N3CCNCC3)C4)c2s1 (stereo not shown)	IC50	1 to 10 µM

Need IC50 for each of these compounds.
1. Cc1cc(Cl)cc(-c2ncnc3cc(C(C)N4C(=O)C5C(C4=O)C5(C)C)sc23)c1C[C@@H]1CNCCO1 (stereo partly shown)
2. O=C(N[C@@H]1CCCNC1)C1Cc2cc(Cl)cc(-c3ccnc4[nH]ccc34)c2O1 (stereo partly shown)
3. Cc1cc(Cl)cc(-c2ncnc3cc(CN4C(=O)NC(C(C)C)C4=O)sc23)c1C[C@@H]1CNCCO1 (stereo partly shown)
4. O=C([C@@H]1Cc2cc(Cl)cc(-c3ccnc4cc(CO)sc34)c2O1)N1CCNCC1
5. O=C1c2ccccc2C2(c3cc4ncnc(-c5cc(Cl)cc6c5O[C@@H](c5onc7c5CNCC7)C6)c4s3)OCCN12 (stereo partly shown)

[out]
1. < 0.01 µM
2. 1 to 10 µM
3. < 0.01 µM
4. 1 to 10 µM
5. 10 to 30 µM
